System: guinea pig
Assay: Delayed hypersensitivity skin test to arsanilic tyrosine after immunisation with antigen mixture plus test compound in FIA
Format: in vivo
Settings: dose 50 μg per guinea pig, s.c. in FIA emulsion; skin test day 14, read at 24 hours; relative to FIA = 1
Protocol: The antigen mixture used consists of 20 μg. of arsanilic tyrosine and 100 μg. of protein [either bovine serum albumin (BSA) or ovalbumin]. The antigen mixture and the compounds to be tested, at the dose levels per guinea pig shown in the Table below, are dissolved in saline and emulsified with an equal volume of Freund's Incomplete Adjuvant (FIA). […]
Friendly reminder: Average Potency, Delayed Hypersensitivity to Arsanilic Tyrosine below 7 is MET, at or above is NOT MET.

COMPOUND | GROUP_LABEL
CC(=O)N[C@H]1C(O)O[C@H](CO)[C@@H](O)[C@@H]1O[C@H](C)C(=O)N[C@@H](C)C(=O)N[C@H](CCC(=O)O)C(N)=O (some centres unmarked) [reference compound] | MET
CC(=O)N[C@H]1C(O)O[C@H](CO)[C@@H](O)[C@@H]1O[C@H](C)C(=O)N[C@@H](CC(C)C)C(=O)N[C@H](CCC(=O)O)C(N)=O (some centres unmarked) | NOT MET

Then there is this compound:
Hi there! Is Average Potency, Delayed Hypersensitivity to Arsanilic Tyrosine for CC(=O)N[C@H]1C(O)O[C@H](CO)[C@@H](O)[C@@H]1O[C@H](C)C(=O)N1CCC[C@H]1C(=O)N[C@H](CCC(=O)O)C(N)=O (some centres unmarked) below 7, do you know?
MET
